# Tested on: 786-0 renal
# ASSAY PROTOCOL: NCI tumour cell line growth inhibition, 48 h
READOUT KIND: TGI (µM)
Please state the figure in µM; there is no need to write the unit.

q: Recorded TGI of NC(N)=N/N=C/c1c(-c2ccsc2)nc2sccn12 , please.
a: 24.3

q: Recorded TGI of CO/N=C(\C)c1ccc(Nc2nc3ccccc3c3occc23)cc1 , please.
a: 27.2

q: Recorded TGI of C/C=C(\C)C(=O)O[C@H]1C=CC(=O)O[C@H]1CCC(=O)[C@H](C)O , please.
a: 30.1

q: Recorded TGI of CC[As](CC)SC[C@H](C)C(=O)N1CCC[C@H]1C(=O)O , please.
a: 0.0743

###

# Tested on: SF-539 CNS
# ASSAY PROTOCOL: NCI tumour cell line growth inhibition, 48 h
Please provide measured TGI for the entries that follow.
Please state the figure in µM; there is no need to write the unit.

q: Recorded TGI of CC(=O)CCn1ncc(Cl)c(Cl)c1=O , please.
a: 38.5

q: Recorded TGI of CC1(C)N=C(N)N=C(N)N1c1ccc(CCCCc2ccc(Cl)cc2S(=O)(=O)F)c(Cl)c1 , please.
a: 6.76

q: Recorded TGI of COc1cccc(C2CC(C)(O)Oc3cc4c(cc32)OCO4)c1O (stereo not given) , please.
a: 38.5

q: Recorded TGI of COc1ccc(OC)c2c1[nH]c(=O)c1c3ccccc3cn21 , please.
a: 3.08

q: Recorded TGI of CCOc1ncn(-c2ccc(NC(=S)Nc3ncccn3)cc2)n1 , please.
a: 33.5

q: Recorded TGI of Cc1cc(C)c2c(n1)sc1c(Nc3ccc(Cl)cc3)ncnc12 , please.
a: 0.0882

q: Recorded TGI of CC(C)CCC1CC2C(=O)N(c3ccccc3)C(=O)C2c2[nH]c3ccccc3c21 (stereo not given) , please.
a: 10.8

q: Recorded TGI of N#Cc1c(NC(=O)NCc2ccccc2)sc2c1CCCCC2 , please.
a: 1.87

q: Recorded TGI of C[N+](C)(C)CC1CCCc2ccccc2C1=O (stereo not given) , please.
a: 31.7

q: Recorded TGI of CCCCC#CC1=C(Br)C(=O)OC1 , please.
a: 14.4

###

Please provide measured GI50 for the entries that follow.
# Tested on: RPMI-8226 leukemia
# ASSAY PROTOCOL: NCI tumour cell line growth inhibition, 48 h

q: Recorded GI50 of NC(=S)N/N=C/C(=O)O , please.
a: > 100000 nM

q: Recorded GI50 of CCCCOC(=O)CNC(=O)OC/C=C/C#CC#C/C=C/COC(=O)NCC(=O)OCCCC , please.
a: > 100000 nM

q: Recorded GI50 of CC(=O)Nc1ccc(S(=O)(=O)N2C(=O)CCC2C(=O)Nc2ccc(Br)cc2)cc1 (centres undefined) , please.
a: 806 nM

q: Recorded GI50 of CNCc1ccccc1-c1csc([C@@H](C)Nc2nc(C)nc3cc(OC)c(OC)cc23)c1 , please.
a: 1770 nM

###

Please provide measured TGI for the entries that follow.
# System: HCC-2998 colon
# ASSAY PROTOCOL: NCI tumour cell line growth inhibition, 48 h

q: Recorded TGI of Cc1cc(C)c2c(n1)sc1c(Nc3ccc(Cl)cc3)ncnc12 , please.
a: > 100 µM

q: Recorded TGI of Cc1ccc2c(c1)C(=S)N1CSCC1c1nncn1-2 (stereo not drawn) , please.
a: > 100 µM

q: Recorded TGI of O=C1c2ccccc2C(=O)c2c(NCC(O)CO)ccc(NCC(O)CO)c21 (stereo not drawn) , please.
a: > 100 µM

From: PubChem BioAssay (NCI)
